I'd appreciate it if you could supply pIC50 values for the items below.
assayed.system: ileal bile acid cotransporter (iBAT) (Homo sapiens (Human))
Sequence (Q12908 whole entry): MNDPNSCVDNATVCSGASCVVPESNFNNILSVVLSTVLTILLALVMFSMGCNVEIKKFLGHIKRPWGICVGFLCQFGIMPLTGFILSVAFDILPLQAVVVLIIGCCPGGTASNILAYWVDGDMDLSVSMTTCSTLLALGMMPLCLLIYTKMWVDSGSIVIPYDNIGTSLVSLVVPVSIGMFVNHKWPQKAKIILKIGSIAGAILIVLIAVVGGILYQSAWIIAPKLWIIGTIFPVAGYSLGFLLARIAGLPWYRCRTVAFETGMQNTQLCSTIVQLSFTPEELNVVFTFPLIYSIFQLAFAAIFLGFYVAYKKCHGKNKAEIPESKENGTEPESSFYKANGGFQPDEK
assay.method.text: Human iBAT inhibition: [3H]-taurocholate uptake into HEK293 cells expressing human iBAT
particulars: HEK293 cells transduced with human iBAT Bacmam virus, 90 minutes at ambient temperature, mean of at least 2 datapoints
Counter-ions that a name gives are not always drawn.
Quick note: pIC50 means taking -log10 of the concentration in moles per liter.

Data point: CCCC[C@]1(CC)CS(=O)(=O)c2cc(CNC(=O)C(=O)O)c(OC)cc2[C@@H](c2ccccc2)N1 ; pIC50 = 8.22

Data point: CCCC[C@]1(CC)CS(=O)(=O)c2cc(CN3CCC[C@@H]3C(=O)O)c(OC)cc2[C@@H](c2ccccc2)N1 [Example 57, ammonium salt] ; pIC50 = 6.12

Data point: CCCC[C@]1(CC)CS(=O)(=O)c2cc(CCCS(=O)(=O)O)c(OC)cc2[C@@H](c2ccccc2)N1 ; pIC50 = 8.40

Data point: CCCC[C@]1(CC)CS(=O)(=O)c2cc(CCCO)c(OC)cc2[C@@H](c2ccccc2)N1 ; pIC50 = 6.21

Data point: CCCC[C@]1(CC)CS(=O)(=O)c2cc(CS(=O)(=O)O)c(OC)cc2[C@@H](c2ccccc2)N1 [Example 5, trifluoroacetate salt] ; pIC50 = 8.40

Data point: CCCCC1(CCCC)CS(=O)(=O)c2cc(CNC(CC(=O)O)CC(=O)O)c(OC)cc2C(c2ccccc2)N1 (stereo not shown) [Example 65, trifluoroacetate salt] ; pIC50 = 6.47

Data point: CCCC[C@]1(CC)CS(=O)(=O)c2cc(C(=O)N(CC(=O)O)CC(=O)O)c(OC)cc2[C@@H](c2ccccc2)N1 [Example 4, hydrochloride] ; pIC50 = 5.60

Data point: CCCC[C@]1(CC)CS(=O)(=O)c2cc(CN(CCS(=O)(=O)O)CCS(=O)(=O)O)c(OC)cc2[C@@H](c2ccccc2)N1 [Example 36, trifluoroacetate salt] ; pIC50 = 6.44

Data point: CCCC[C@]1(CC)CS(=O)(=O)c2cc(CNCCS(=O)(=O)O)c(OC)cc2[C@@H](c2ccccc2)N1 [Example 35, ammonium salt] ; pIC50 = 7.27

Data point: CCCC[C@]1(CC)CS(=O)(=O)c2cc(C(=O)NCS(=O)(=O)O)c(OC)cc2[C@@H](c2ccccc2)N1 ; pIC50 = 7.96

Data point: CCCC[C@]1(CC)CS(=O)(=O)c2cc(CCP(=O)(O)O)c(OC)cc2[C@@H](c2ccccc2)N1 [Example 51, bis-ammonium salt] ; pIC50 = 7.29

Data point: CCCC[C@]1(CC)CS(=O)(=O)c2cc(CNC(CC(=O)O)CC(=O)O)c(OC)cc2[C@@H](c2ccccc2)N1 ; pIC50 = 7.37

Data point: CCCC[C@]1(CC)CS(=O)(=O)c2cc(CCC(=O)NO)c(OC)cc2[C@@H](c2ccccc2)N1 ; pIC50 = 7.17
